biological target: GlcNAc(b1-3)Fuc; assay: glycan array binding signal (z-score within array); higher = stronger binding; conditions: glycan notation: IUPAC condensed, linker removed
The sample as a whole holds a higher share of the strongest signals than the screen did.
property measured: glycan array binding signal (z-score)
Format: numeric value only, no unit, no commentary.

Previously resolved entries follow.
• Epa3to1 (Candida glabrata) (protein) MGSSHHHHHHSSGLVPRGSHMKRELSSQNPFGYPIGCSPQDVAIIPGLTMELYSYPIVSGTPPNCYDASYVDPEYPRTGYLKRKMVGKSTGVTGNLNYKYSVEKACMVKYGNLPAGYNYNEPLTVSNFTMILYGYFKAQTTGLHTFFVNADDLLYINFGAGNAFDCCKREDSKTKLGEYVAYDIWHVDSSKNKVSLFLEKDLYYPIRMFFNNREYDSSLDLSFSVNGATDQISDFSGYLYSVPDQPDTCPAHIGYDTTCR = -0.291
• Epa12 (Candida glabrata) (protein) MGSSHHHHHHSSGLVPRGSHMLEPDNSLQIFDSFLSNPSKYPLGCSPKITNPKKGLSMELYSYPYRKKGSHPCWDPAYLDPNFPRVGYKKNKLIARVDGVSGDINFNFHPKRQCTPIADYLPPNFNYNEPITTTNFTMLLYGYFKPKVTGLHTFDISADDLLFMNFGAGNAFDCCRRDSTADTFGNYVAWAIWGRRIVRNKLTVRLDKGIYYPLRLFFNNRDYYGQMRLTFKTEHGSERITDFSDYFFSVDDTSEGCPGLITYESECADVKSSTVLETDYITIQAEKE = -0.36

As a next step, examine the binder that follows.
Q: Requested field: glycan array binding signal (z-score). Item: SJCP1531 (Schistosoma japonicum) (protein) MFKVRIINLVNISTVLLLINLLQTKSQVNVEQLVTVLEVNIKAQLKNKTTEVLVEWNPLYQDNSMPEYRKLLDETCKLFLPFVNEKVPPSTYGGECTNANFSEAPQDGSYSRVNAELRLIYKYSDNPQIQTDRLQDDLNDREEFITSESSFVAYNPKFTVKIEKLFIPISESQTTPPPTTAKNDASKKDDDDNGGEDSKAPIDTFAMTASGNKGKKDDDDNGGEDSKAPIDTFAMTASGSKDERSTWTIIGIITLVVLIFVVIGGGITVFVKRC
Ans: -0.112
